Test: Stability of cannabinoid and Vitamin E components of Beverage 1 (AB White) stored at 8° C. and 21-25° C., LCMSMS over 570 days
Type: physicochemical
Conditions: beverage stored at 21-25° C., day 240
Under this convention, yes (1) denotes Stability in AB White, 21-25° C. (content by LCMSMS) strictly below 5 µg/mL and no (0) denotes Stability in AB White, 21-25° C. (content by LCMSMS) at or above 5 µg/mL.

query: Hi there! Is Stability in AB White, 21-25° C. (content by LCMSMS) for CCCCCc1cc(O)c2c(c1)OC(C)(CCC=C(C)C)C=C2 (centres unmarked) [CBC, cannabichromene] below 5 µg/mL, do you know?
result: yes (1)

query: Hi there! Is Stability in AB White, 21-25° C. (content by LCMSMS) for CCCCCc1cc(O)c2c(c1)OC(C)(C)c1ccc(C)cc1-2 [CBN, cannabinol] below 5 µg/mL, do you know?
result: yes (1)

query: Hi there! Is Stability in AB White, 21-25° C. (content by LCMSMS) for CCCCCc1cc(O)c2c(c1)OC(C)(C)[C@@H]1CCC(C)=C[C@@H]21 [D9 THC, delta-9-tetrahydrocannabinol, reference compound] below 5 µg/mL, do you know?
result: no (0)

query: Hi there! Is Stability in AB White, 21-25° C. (content by LCMSMS) for CCCCCc1cc(O)c(C/C=C(\C)CCC=C(C)C)c(O)c1 [CBG, cannabigerol] below 5 µg/mL, do you know?
result: yes (1)

query: Hi there! Is Stability in AB White, 21-25° C. (content by LCMSMS) for C=C(C)[C@@H]1CCC(C)=C[C@H]1c1c(O)cc(CCC)cc1O [CBDV, cannabidivarin] below 5 µg/mL, do you know?
result: yes (1)

###

I'd appreciate it if you could supply Stability in Powder Concentrate (content by LCMSMS) values for the items below.
Assay type: physicochemical
Details: stored at room temperature (21-25° C.), day 12
Entry rule: numbers only, all in mg/g powder.

query: Return reported Stability in Powder Concentrate (content by LCMSMS); argument: CCCCCc1cc2c(c(O)c1C(=O)O)[C@@H]1C=C(C)CC[C@H]1C(C)(C)O2 [D9 THCA, delta-9-tetrahydrocannabinolic acid]
result: 0.152

query: Return reported Stability in Powder Concentrate (content by LCMSMS); argument: CCCCCc1cc(O)c2c(c1)OC(C)(C)c1ccc(C)cc1-2
result: 0.496

query: Return reported Stability in Powder Concentrate (content by LCMSMS); argument: C=C(C)[C@@H]1CCC(C)=C[C@H]1c1c(O)cc(CCCCC)cc1O [CBD, cannabidiol, reference compound]
result: 5.76

query: Return reported Stability in Powder Concentrate (content by LCMSMS); argument: C=C(C)[C@@H]1CCC(C)=C[C@H]1c1c(O)cc(CCC)cc1O
result: 0.051

query: Return reported Stability in Powder Concentrate (content by LCMSMS); argument: CCCCCc1cc(O)c2c(c1)OC1(C)CCC3C1C2C3(C)C (stereo not shown)
result: 0.052

query: Return reported Stability in Powder Concentrate (content by LCMSMS); argument: CCCCCc1cc(O)c2c(c1)OC(C)(C)[C@@H]1CCC(C)=C[C@@H]21 [D9 THC, delta-9-tetrahydrocannabinol, reference compound]
result: 2.65

query: Return reported Stability in Powder Concentrate (content by LCMSMS); argument: Cc1c(C)c2c(c(C)c1O)CC[C@@](C)(CCC[C@H](C)CCC[C@H](C)CCCC(C)C)O2
result: 5.01
